Reference source for all entries: paper PMC13266984

Target: Human ALDH3A1 (Homo sapiens)
Sequence (P30838 whole entry): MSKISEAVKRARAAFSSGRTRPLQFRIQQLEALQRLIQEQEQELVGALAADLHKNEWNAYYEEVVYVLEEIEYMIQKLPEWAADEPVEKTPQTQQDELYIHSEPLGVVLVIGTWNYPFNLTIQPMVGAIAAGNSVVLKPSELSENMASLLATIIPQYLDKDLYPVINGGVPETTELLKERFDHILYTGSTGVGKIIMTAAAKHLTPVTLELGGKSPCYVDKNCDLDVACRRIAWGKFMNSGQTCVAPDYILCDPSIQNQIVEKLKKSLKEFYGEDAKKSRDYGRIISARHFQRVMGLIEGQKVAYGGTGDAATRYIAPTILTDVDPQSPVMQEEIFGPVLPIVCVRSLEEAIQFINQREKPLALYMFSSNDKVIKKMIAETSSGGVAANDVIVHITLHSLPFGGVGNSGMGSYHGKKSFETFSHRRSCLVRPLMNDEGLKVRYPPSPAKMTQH
Test: ALDH3A1 biochemical assay (benzaldehyde/NADP+, diaphorase-resazurin readout, 1,536-well)
Conditions: Table S4, biochemical
VALUE TYPE: Efficacy

Cc1cccc(CNC(=O)c2csc(N3CCN(c4ccc(C(F)(F)F)cn4)CC3)n2)c1 ... -94.33
CCc1ccc(N2CCN(c3nc(C(=O)NCc4cccc(C)c4)cs3)CC2)cc1Cl ... -91.75
COc1ccc(N2CCN(c3nc(C(=O)NCc4cccc(C)c4)cs3)CC2)cc1OC ... -51.05

(a) Cc1cccc(CNC(=O)c2csc(N3CCN(c4cc(C(F)(F)F)nc5ccccc45)CC3)n2)c1
(b) Cc1cccc(CNC(=O)c2csc(N3CCN(c4ccc(C(N)=O)cc4)CC3)n2)c1
Task: # min-compare on Efficacy between a and b Your answer should be the label attached to the chosen record.
Output: a
